Would you mind telling me the reported ED50 of each entry?
Assay: Antifungal activity against Leptosphaeria nodorum after 3 to 5 days by photometric method
Assay type: functional
Report the figure in µg/mL without appending any unit label.

Just so you know, measured ED50 for `COc1c(Cl)c(C)c(Cl)c(O)c1C(=O)c1c(C=O)c(O)cc(O)c1CC=C(C)C` came out at 22.4

Just so you know, measured ED50 for `COc1cc(OC)c(CC=C(C)C)c(C(=O)c2c(O)c(Cl)c(C)c(Cl)c2OC)c1C=O` came out at 22.5

###

Experiment: Antifungal activity against Leptosphaeria nodorum after 3 to 5 days by photometric method
Assay type: functional
readoutKind: ED50

Just so you know, measured ED50 for `COc1c(Cl)c(C)c(Cl)c(O)c1C(=O)c1c(Br)c(O)cc(O)c1Br` came out at > 50 µg/mL

Just so you know, measured ED50 for `COc1cc(OC)c(CC=C(C)C)c(C(=O)c2c(OC)c(Cl)c(C)c(Cl)c2OC)c1Br` came out at > 50 µg/mL

Just so you know, measured ED50 for COc1c(Cl)c(C)c(Cl)c(O)c1C1NC(=O)c2c(O)cc(O)c(CC=C(C)C)c21 (racemic) [PESTALACHLORIDE A] came out at > 50 µg/mL
